Test Target: Neu5Ac(a2-3)GalNAc(b1-4)GlcNAc
Assay Text: glycan array binding signal (z-score within array); higher = stronger binding
Reported Conditions: glycan notation: IUPAC condensed, linker removed
The full list was thinned out, with the strongest signals kept by preference.
Property Name: glycan array binding signal (z-score)
Write the number on its own, no unit after it.

Binder	Reported
Ecp6 (Cladosporium fulvum), B3VBK9 (protein) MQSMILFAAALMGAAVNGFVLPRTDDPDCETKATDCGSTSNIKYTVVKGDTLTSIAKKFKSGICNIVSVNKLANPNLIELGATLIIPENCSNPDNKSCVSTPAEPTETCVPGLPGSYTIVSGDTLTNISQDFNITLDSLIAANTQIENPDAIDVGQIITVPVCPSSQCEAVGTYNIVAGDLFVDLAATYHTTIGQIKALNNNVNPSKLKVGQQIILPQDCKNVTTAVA	-0.052

QUERY: Field request: glycan array binding signal (z-score) | item: Als3-41 (Candida albicans) (protein) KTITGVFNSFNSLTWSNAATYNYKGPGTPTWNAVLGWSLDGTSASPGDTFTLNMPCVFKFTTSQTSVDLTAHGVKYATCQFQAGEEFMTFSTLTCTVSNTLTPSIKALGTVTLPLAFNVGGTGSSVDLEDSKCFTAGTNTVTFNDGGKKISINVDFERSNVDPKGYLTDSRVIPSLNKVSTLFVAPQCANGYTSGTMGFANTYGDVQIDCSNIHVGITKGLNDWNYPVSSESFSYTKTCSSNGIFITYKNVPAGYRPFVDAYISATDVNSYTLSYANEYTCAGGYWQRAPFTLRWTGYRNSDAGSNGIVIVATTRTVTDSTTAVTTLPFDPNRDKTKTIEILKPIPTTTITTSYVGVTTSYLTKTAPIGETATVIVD
RESULT: -0.224

Data provenance: the supplement of paper PMC8728848
